Exercise: state measured cell viability for each of the compounds provided.
# Test system: MOLM14;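 note: after 48 h exposure read by CellTiter-Glo luminescence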
# run.description: cell viability relative to vehicle control; higher = less cytotoxic
# measurement.conditions: 10 µM; SRSF2 genotype: SRSF2 P95H/wt
Structures can show the parent of a compound that is named as a salt.
Numbers only, in %.

1) Nc1ncnc2c1ccn2[C@@H]1O[C@H]([C@H](O)c2ccccc2)[C@@H](O)[C@H]1O :: 77.1
2) Cc1ccccc1-n1c(Cn2ncc3c(N)ncnc32)nc2cccc(C)c2c1=O :: 81.9
3) C[C@H]1CCCC(=O)CCC/C=C/c2cc(O)cc(O)c2C(=O)O1 [Zearalenone] :: 79.2
4) CC[C@H]1CN2CC[C@]3(C(=O)Nc4ccccc43)[C@@H]2C[C@@H]1/C(=C\OC)C(=O)OC [Rhynchophylline] :: 88.9
5) COc1ccc(N(C(=O)Oc2c(C)cccc2C)c2ccnc(Nc3ccc(N4CCN(C)CC4)cc3)n2)c(OC)c1 :: 38.8

I would be grateful if you could provide cell viability for each of the following entries.
1. C=C1[C@H]2C[C@@]3([C@@H]1O)[C@@H](CC2=O)[C@]12[C@@H]4C[C@H]3[C@H]1N(CC)C[C@]4(C)CC[C@@H]2O [Songorine]
2. CN1CC=C(c2ccccc2)CC1 [MPTP hydrochloride]
3. CCc1c(C(=O)C(N)=O)c2c(OCC(=O)O)cccc2n1Cc1ccccc1
4. Cc1sc2c(c1C)C(c1ccc(Cl)cc1)=NC(CC(N)=O)c1nnc(C)n1-2 (stereo not given)
5. Cc1cc2c(C(C)C)c(O)c(O)c(C=O)c2c(O)c1-c1c(C)cc2c(C(C)C)c(O)c(O)c(C=O)c2c1O
6. NCC(CC(=O)O)c1ccccc1 (stereo not given) [Phenibut]

1. 102
2. 103
3. 93.1
4. 20.1
5. 0.51
6. 108

Below are some compounds; for each one, tell me its cell viability.
1. CN1[C@@H]2CC[C@H]1C[C@@H](OC(=O)C(CO)c1ccccc1)C2 (stereo not given in full) [Atropine sulfate monohydrate]
2. CC[C@@H](C(N)=O)N1CCCC1=O [Levetiracetam]

100
101

Please report cell viability for every entry that follows.
1. Cc1c(Cl)c(OCC(=O)N2CCN(C)CC2)nc2sc(C(=O)NC3CC3)c(N)c12
2. CC1=C[C@@H]2C(=O)[C@]3(C=C(C)[C@H](O)[C@@]3(O)[C@@H]1O)[C@H](C)C[C@@H]1[C@H]2C1(C)C [20-Deoxyingenol]

1: 81.9; 2: 39.8

Cited source: the supplement of paper PMC10981050
